Attribute: pKA
study.system: Muscarinic acetylcholine receptor M2 (Sus scrofa) (UniProt P06199)
Sequence (P06199 whole entry): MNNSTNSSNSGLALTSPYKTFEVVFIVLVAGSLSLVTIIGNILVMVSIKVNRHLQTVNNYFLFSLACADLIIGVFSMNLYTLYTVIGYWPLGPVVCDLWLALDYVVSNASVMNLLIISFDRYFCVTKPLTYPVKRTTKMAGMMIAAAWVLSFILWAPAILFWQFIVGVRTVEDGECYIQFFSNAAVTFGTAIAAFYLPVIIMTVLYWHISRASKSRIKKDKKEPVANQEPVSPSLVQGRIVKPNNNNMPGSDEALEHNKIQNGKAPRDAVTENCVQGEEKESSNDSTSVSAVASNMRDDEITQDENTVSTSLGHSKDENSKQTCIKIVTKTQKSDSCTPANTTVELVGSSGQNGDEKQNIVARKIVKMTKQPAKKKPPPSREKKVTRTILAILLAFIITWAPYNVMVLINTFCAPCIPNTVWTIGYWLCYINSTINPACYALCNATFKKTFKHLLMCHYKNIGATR
test.protocol: Binding affinity towards Muscarinic acetylcholine receptor M2 in porcine heart using [3H]NMS as a radioligand
readout: pKA

- CCCN(CCC)CC1CCCCN1CCNC(=O)N1c2ccccc2C(=O)Nc2cccnc21 (stereo not given): 8.14
- CCCN(CCCN1C(=O)c2ccccc2C1=O)CC1CCCCN1CCNC(=O)N1c2ccccc2C(=O)Nc2cccnc21 (stereo not given): 5.89
- CCCN(CCCCCCN1C(=O)c2ccccc2C1=O)CC1CCCCN1CCNC(=O)N1c2ccccc2C(=O)Nc2cccnc21 (stereo not given): 6.71
- CCCN(CCCCCC[N+](C)(C)CCCN1C(=O)c2ccccc2C1=O)CC1CCCCN1CCNC(=O)N1c2ccccc2C(=O)Nc2cccnc21 (stereo not given): 6.83
- CCCN(CCCN1C(=O)CCC1=O)CC1CCCCN1CCNC(=O)N1c2ccccc2C(=O)Nc2cccnc21 (stereo not given): 8.01
